Reference source: patent US12239711B2

- TARGET_OR_TEST_SYSTEM: Estrogen Receptor-Alpha (ERα) (Homo sapiens)
- Construct: endogenous in cells; host or cells: MCF-7 (MCF7) cells
- Sequence (P03372 1-595): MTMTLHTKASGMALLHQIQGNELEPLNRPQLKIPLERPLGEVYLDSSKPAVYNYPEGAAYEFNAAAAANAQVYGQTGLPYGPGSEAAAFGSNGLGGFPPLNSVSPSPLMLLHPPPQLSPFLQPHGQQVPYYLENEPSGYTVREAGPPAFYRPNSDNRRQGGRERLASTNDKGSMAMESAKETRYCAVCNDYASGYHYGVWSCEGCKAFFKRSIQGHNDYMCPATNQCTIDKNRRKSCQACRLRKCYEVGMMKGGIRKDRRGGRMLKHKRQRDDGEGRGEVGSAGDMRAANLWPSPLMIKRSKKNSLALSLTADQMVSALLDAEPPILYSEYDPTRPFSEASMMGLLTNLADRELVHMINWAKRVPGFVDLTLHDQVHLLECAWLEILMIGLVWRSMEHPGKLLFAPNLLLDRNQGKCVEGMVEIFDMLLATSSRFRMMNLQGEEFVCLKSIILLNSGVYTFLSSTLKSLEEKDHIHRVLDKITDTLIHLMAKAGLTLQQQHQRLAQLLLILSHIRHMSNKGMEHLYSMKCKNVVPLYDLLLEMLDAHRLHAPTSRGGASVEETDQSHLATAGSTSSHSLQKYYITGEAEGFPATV
- EXPERIMENTAL_DETAILS: Estrogen Receptor-Alpha (ERα) degradation assay in MCF-7 cells (western blot / In-Cell Western)
- Assay type: cell-based
- CONDITIONS_USED: read-out: ER DC50
Recorded measurements of DC50, one per entry
QUANTITY_KIND: DC50

{"COMPOUND": "O=C1CCC(N2Cc3cc(N4CCN(CCC5CCN(c6ccc([C@@H]7c8ccc(O)cc8CC[C@@H]7c7ccccc7)cc6)CC5)CC4)cc(OC(F)F)c3C2=O)C(=O)N1 (some centres unmarked)", "REPORTED_VALUE": "1 to 10 nM"}
{"COMPOUND": "O=C1CCC(N2Cc3cc(N4CCN(CCCC(F)(F)COc5ccc([C@@H]6c7ccc(O)cc7CC[C@@H]6c6ccccc6)cc5)CC4)cc(OC(F)F)c3C2=O)C(=O)N1 (some centres unmarked)", "REPORTED_VALUE": "1 to 10 nM"}
{"COMPOUND": "COc1cc(N2CCN(CCCCCOc3ccc([C@@H]4c5ccc(O)cc5CC[C@@H]4c4ccccc4)cc3)CC2)cc2c1C(=O)N(C1CCC(=O)NC1=O)C2 (some centres unmarked)", "REPORTED_VALUE": "1 to 10 nM"}
{"COMPOUND": "COc1cc(N2CCN(CCCCCOc3ccc([C@@H]4c5ccc(O)cc5CC[C@@H]4c4ccccc4)cc3)CC2)cc2c1C(=O)N([C@@H]1CCC(=O)NC1=O)C2", "REPORTED_VALUE": "< 1 nM"}
{"COMPOUND": "COc1cc(N2CCN(Cc3cccc(COc4ccc([C@@H]5c6ccc(O)cc6CC[C@@H]5c5ccccc5)cc4)n3)CC2)cc2c1C(=O)N(C1CCC(=O)NC1=O)C2 (some centres unmarked)", "REPORTED_VALUE": "1 to 10 nM"}
{"COMPOUND": "COc1cc(N2CCN(CC3CCN(c4ccc([C@@H]5c6ccc(O)cc6CC[C@@H]5c5ccccc5)cc4)CC3)CC2)cc2c1C(=O)N(C1CCC(=O)NC1=O)C2 (some centres unmarked)", "REPORTED_VALUE": "< 1 nM"}
{"COMPOUND": "COc1cc(N2CCN(CC3CCN(c4c(F)cc([C@H]5c6ccc(O)cc6CC[C@H]5c5ccccc5)cc4F)CC3)CC2)cc2c1C(=O)N(C1CCC(=O)NC1=O)C2 (some centres unmarked)", "REPORTED_VALUE": "1 to 10 nM"}
{"COMPOUND": "COCCOCCOc1c(N2CCN(CCCCCOc3ccc([C@@H]4c5ccc(O)cc5CC[C@@H]4c4ccccc4)cc3)CC2)ccc2c1CN(C1CCC(=O)NC1=O)C2=O (some centres unmarked)", "REPORTED_VALUE": "< 1 nM"}
